# MEASUREMENT_NOTES: Freeze-thaw stability in spiked pooled human plasma
# Assay type: physicochemical
# EXPERIMENTAL_PARAMETERS: validation standard MOV
ENDPOINT: Freeze-Thaw Accuracy [%] (%)
Report only the number, with the unit % understood.

Example entries and their recorded answers appear below.
[
  {
    "MOLECULE": "CCOc1cc2ncc(C#N)c(Nc3ccc(OCc4ccccn4)c(Cl)c3)c2cc1NC(=O)/C=C/CN(C)C [Neratinib]",
    "Freeze-Thaw Accuracy [%], %": 88.9
  },
  {
    "MOLECULE": "CNC(=O)c1cc(Oc2ccc(NC(=O)Nc3ccc(Cl)c(C(F)(F)F)c3)c(F)c2)ccn1 [Regorafenib]",
    "Freeze-Thaw Accuracy [%], %": 96.2
  }
]

Freeze-Thaw Accuracy [%] for Cn1cnc2c(F)c(Nc3ccc(Br)cc3F)c(C(=O)NOCCO)cc21 [Binimetinib] is 100.1

The molecule listed as Cc1c(C(=O)Nc2ccc(N3C[C@@H](C)O[C@@H](C)C3)nc2)cccc1-c1ccc(OC(F)(F)F)cc1 [Sonidegib] has a reported Freeze-Thaw Accuracy [%] of 96.5

Just so you know, measured Freeze-Thaw Accuracy [%] for Nc1cccc2c1CN(C1CCC(=O)NC1=O)C2=O (stereo not drawn) [Lenalidomide] came out at 97.3

Sure, the documented Freeze-Thaw Accuracy [%] for CC(C)(C)c1nc(-c2cccc(NS(=O)(=O)c3c(F)cccc3F)c2F)c(-c2ccnc(N)n2)s1 [Dabrafenib] is 99.0

response.value for C[C@]12CC[C@H](O)CC1=CC[C@@H]1[C@@H]2CC[C@]2(C)C(c3cccnc3)=CC[C@@H]12 [Abiraterone] (field: Freeze-Thaw Accuracy [%]) = 101.5

The recorded Freeze-Thaw Accuracy [%] for C[C@H]1Oc2cc(cnc2N)-c2c(nn(C)c2C#N)CN(C)C(=O)c2ccc(F)cc21 [Lorlatinib] is 95.2

Freeze-Thaw Accuracy [%] reading for CC(=O)Nc1cccc(-n2c(=O)n(C3CC3)c(=O)c3c(Nc4ccc(I)cc4F)n(C)c(=O)c(C)c32)c1 [Trametinib] : 102.5

====

# MEASUREMENT_NOTES: Long-term stability in spiked pooled human plasma
# EXPERIMENTAL_PARAMETERS: validation standard LLOV
In this section, each of the molecules is paired with its reported Long-term stability, 3 month, -80°C Accuracy [%].
Please state the figure in %; there is no need to write the unit.

Use the examples below as a reference point.
[
  {
    "MOLECULE": "COc1cc2ncnc(Nc3ccc(F)c(Cl)c3)c2cc1NC(=O)/C=C/CN1CCCCC1",
    "REPORTED_VALUE": 96.1
  },
  {
    "MOLECULE": "CCCS(=O)(=O)Nc1ccc(F)c(C(=O)c2c[nH]c3ncc(-c4ccc(Cl)cc4)cc23)c1F",
    "REPORTED_VALUE": 114.9
  },
  {
    "MOLECULE": "CNC(=O)c1ccc(N2C(=S)N(c3cnc(C#N)c(C(F)(F)F)c3)C(=O)C23CCC3)cc1F [Apalutamide]",
    "REPORTED_VALUE": 98.4
  }
]

Short answer for CN(C)C(=O)c1cc2cnc(Nc3ccc(N4CCNCC4)cn3)nc2n1C1CCCC1 : Long-term stability, 3 month, -80°C Accuracy [%] was 90.7

Lookup result for O=C(Nc1cnn2ccc(N3CCC[C@@H]3c3cc(F)ccc3F)nc12)N1CC[C@H](O)C1 ; measured Long-term stability, 3 month, -80°C Accuracy [%]: 94.2

Data point: C[C@]12CC[C@H](O)CC1=CC[C@@H]1[C@@H]2CC[C@]2(C)C(c3cccnc3)=CC[C@@H]12 ; Long-term stability, 3 month, -80°C Accuracy [%] = 106.0
